# System: HEK-293T
# Method Notes: Incucyte cell viability with HEK293T; also: unitless GR value; below 1 slowed growth and below 0 cell loss
# Type: toxicity, cell-based
# Cond: human, 6 h, 10 µM, compound concentration 10 uM, replicate number 2, timepoint 6 hours

{"columns": ["Compound", "Growth Rate"],
 "data": [
  ["O=c1ccn([C@@H]2O[C@H](COP(=O)([O-])OP(=O)([O-])OP(=O)([O-])O)[C@@H](O)[C@H]2O)c(=O)[nH]1.[Na+].[Na+].[Na+]", 0.41],
  ["CN(C)C(=O)N1CC[C@H](NC2=Nc3cc(F)ccc3N(CC(F)F)c3ccc(Cl)cc32)C1", 0.35],
  ["O=c1ccn([C@@H]2O[C@H](COP(=O)([O-])OP(=O)([O-])OP(=O)([O-])OP(=O)([O-])OC[C@H]3O[C@@H](n4ccc(=O)[nH]c4=O)[C@H](O)[C@@H]3O)[C@@H](O)[C@H]2O)c(=O)[nH]1.[Na+].[Na+].[Na+].[Na+] [DIQUAFOSOL TETRASODIUM]", 0.63],
  ["CC(C)c1cc(-c2ccc(F)c3ccccc23)nc(N)n1", 0.72],
  ["Cc1ccc(Cn2nc(C(=O)N[C@@H]3C(C)(C)[C@@H]4CC[C@@]3(C)C4)cc2-c2ccc(Cl)c(C)c2)cc1", 0.75],
  ["CCc1cc2c(cc1-c1cccc(S(=O)(=O)F)c1)C(C)(C)c1[nH]c3cc(C#N)ccc3c1C2=O", 0.37],
  ["CC(=O)NCC(=O)N1[C@@H]2CC[C@H]1c1ccc(Nc3ncc(C(F)(F)F)c(NC4CCC4)n3)cc12", -0.88],
  ["CCCCC[C@H](O)/C=C/[C@H]1CCC(=O)[C@@H]1CCCCCCC(=O)O", 0.48],
  ["CC[C@H]1CN2CCc3cc(OC)c(OC)cc3[C@@H]2C[C@@H]1C[C@H]1NCCc2cc(OC)c(OC)cc21", -0.77],
  ["Cc1nc2ccc(Oc3ccc(F)cc3)cc2c(=O)n1C[C@H]1CCCN(C(C)C)C1.Cl", 0.52]
]}

====

# Tested on: HEK-293T
# Method Notes: Incucyte cell viability with HEK293T; also: unitless GR value; below 1 slowed growth and below 0 cell loss
# Assay type: toxicity, cell-based
# Cond: human, 0 h, 10 µM, compound concentration 10 uM, replicate number 1, timepoint 0 hours
Where a SMILES comes first, the peptide text is derived from it. [ ]: non-standard residue; d: D form. Arg(Me) = CNC(=N)NCCC[C@H](N)C(=O)O; d3Pal = N[C@H](Cc1cccnc1)C(=O)O; azaGly = NNC(=O)O

{"columns": ["Compound", "Growth Rate"],
 "data": [
  ["CN(C)C(=O)Cn1cc(-c2ccc(-c3cncc4ccccc34)cc2)cn1", 0.84],
  ["CC(C)Oc1ccc(F)c(-c2cnc(N)c(C(=O)Nc3cnccc3N3CCC[C@@H](C(=O)O)C3)n2)c1", 0.29],
  ["O=c1ccn([C@@H]2O[C@H](COP(=O)([O-])OP(=O)([O-])OP(=O)([O-])OP(=O)([O-])OC[C@H]3O[C@@H](n4ccc(=O)[nH]c4=O)[C@H](O)[C@@H]3O)[C@@H](O)[C@H]2O)c(=O)[nH]1.[Na+].[Na+].[Na+].[Na+] [DIQUAFOSOL TETRASODIUM]", 0.43],
  ["O=C1NC(NC23CC4CC(CC(C4)C2)C3)=N/C1=C\\c1ccc2ncsc2c1", -0.13],
  ["CCCCC[C@H](O)/C=C/[C@H]1[C@H](O)CC(=O)[C@@H]1CCCCCCC(=O)O", -0.15],
  ["O=C(O)c1n[nH]c2c1C[C@H]1C[C@@H]21", 0.7],
  ["CNC(=N)NCCC[C@H](NC(=O)[C@H](CC(C)C)NC(=O)NNC(=O)[C@H](Cc1ccccc1)NC(=O)[C@H](CO)NC(=O)[C@H](CC(N)=O)NC(=O)[C@@H](Cc1cccnc1)NC(=O)[C@H](N)Cc1ccc(O)cc1)C(=O)NCC(N)=O [KISS1-543] (H-[dY][d3Pal]NSF[azaGly]L[Arg(Me)]G-NH2)", 0.75],
  ["CCOC(=O)c1c(/C(C#N)=C\\N)c2ccc(Cl)c(Cl)c2n1C", 0.5],
  ["CN1C[C@@H](NS(=O)(=O)N(C)C)C[C@@H]2c3cccc4c3c(cn4C)C[C@H]21.Cl [MESULERGINE HYDROCHLORIDE]", 0.52],
  ["N#Cc1c(N)nc(SCc2csc(-c3ccc(Cl)cc3)n2)c(C#N)c1-c1ccc(OCCO)cc1", 0.41],
  ["Cc1cc(C)cc([C@@H]2c3cc(C)ccc3NC(=O)CN2C(=O)c2ccc(Br)s2)c1", 0.35],
  ["CC(C)N(CCCCOCC(=O)NS(C)(=O)=O)c1cnc(-c2ccccc2)c(-c2ccccc2)n1", 0.99],
  ["COc1cc2nc(N3CCN(C(=O)C4CCCO4)CC3)nc(N)c2cc1OC.Cl.O.O (stereo not drawn) [TERAZOSIN HYDROCHLORIDE]", 0.72],
  ["Cc1cc(C)cc([C@H]2c3cc(C)ccc3NC(=O)CN2C(=O)c2ccc(Br)s2)c1", -0.3],
  ["NCCc1c[nH]c2ccc(C(N)=O)cc12.O=C(O)/C=C\\C(=O)O", 0.4],
  ["COc1ccccc1N1CCN(C[C@@H](C(=O)NC(C)(C)C)c2ccccc2)CC1.Cl.Cl", 0.89],
  ["COc1cc(N2CCN(C)CC2)ccc1Nc1nccc(-c2cn(C)c3cnccc23)n1", -0.61],
  ["O=C(O)c1cccc(/C=C2/C[C@@H]3[C@@H](/C=C/[C@H](O)C4CCCCC4)[C@H](O)C[C@@H]3O2)c1", -0.12],
  ["CSc1nc(NC2CCCC2)c([N+](=O)[O-])c(NC2CCCC2)n1", 0.5],
  ["N=C(N)NCCC[C@H](NC(=O)COCC(c1ccccc1)c1ccccc1)C(=O)O.O=C(O)C(F)(F)F", 0.96],
  ["Cc1ccc(-c2ccc(F)cc2COc2ccc(CCC(=O)O)cc2)cc1", 0.43],
  ["O=C(O)COc1cccc(-c2ocnc2-c2nc(-c3ccccc3)c(-c3ccccc3)o2)c1", 0.53],
  ["CCOc1nc2cccc(C(=O)O)c2n1Cc1ccc(-c2ccccc2-c2nnn[nH]2)cc1", 0.86]
]}
